TESTED_SYSTEM: GTPase KRas (Homo sapiens, UniProt P01116, G13D)
Sequence (P01116 whole entry G13D): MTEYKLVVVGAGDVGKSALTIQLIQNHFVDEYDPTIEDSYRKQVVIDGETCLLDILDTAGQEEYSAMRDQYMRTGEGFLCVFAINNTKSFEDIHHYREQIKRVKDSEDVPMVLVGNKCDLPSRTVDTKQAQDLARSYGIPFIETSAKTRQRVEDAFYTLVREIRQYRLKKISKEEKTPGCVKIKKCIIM
ASSAY_REMARKS: Inhibition of Biotinylated KRAS G13D mutant (unknown origin) incubated for 20 mins in presence of BODIPY-GDP by HTRF assay
QUANTITY: pIC50
Scale note: pIC50 = -log10(concentration in M).

Solved cases below.
{"COMPOUND": "Cc1cc(N)nc(-c2cc3nc(OC[C@@H]4CCCN4C)nc4c3c(c2Cl)OC[C@@H]2CN(C(=O)CC[C@@H]3CCCCN3)CCN42)c1C(F)(F)F", "TESTED_SYSTEM": "GTPase KRas (Homo sapiens, UniProt P01116, G13D)", "RECORDED_NUMBER": 5.77}
{"COMPOUND": "Cc1cc(N)nc(-c2cc3nc(OC[C@@H]4CCCN4C)nc4c3c(c2Cl)OC[C@@H]2CN(C(=O)[C@@H]3CC[C@H]3N)CCN42)c1C(F)(F)F", "TESTED_SYSTEM": "GTPase KRas (Homo sapiens, UniProt P01116, G13D)", "RECORDED_NUMBER": 5.52}
{"COMPOUND": "C=C1CN2CCC[C@@]2(COc2nc(N3CCN(C(=O)/C=C/c4cc(CN5CCOCC5)ccn4)C[C@@H]3C)c3cc(Cl)c(-c4nc(N)cc(C)c4C(F)(F)F)c(F)c3n2)C1", "TESTED_SYSTEM": "GTPase KRas (Homo sapiens, UniProt P01116, G13D)", "RECORDED_NUMBER": 8.39}
{"COMPOUND": "Cc1cc(N)nc(-c2cc3nc(OC[C@@H]4CCCN4C)nc4c3c(c2Cl)OC[C@@H]2CN(C(=O)CCN)CCN42)c1C(F)(F)F", "TESTED_SYSTEM": "GTPase KRas (Homo sapiens, UniProt P01116, G13D)", "RECORDED_NUMBER": 5.57}

Field request: pIC50 | item: `C=C1CN2CCC[C@@]2(COc2nc(N3CCN(C(=O)/C=C/c4cc(C5CCN(C)CC5)c(C)cn4)C[C@@H]3C)c3cc(Cl)c(-c4nc(N)cc(C)c4C(F)(F)F)c(F)c3n2)C1` 6.47

Next record, please: Cc1cc(N)nc(-c2cc3nc(OC[C@@H]4CCCN4C)nc4c3c(c2Cl)OC[C@@H]2CN(C(=O)CCC3CCNC3)CCN42)c1C(F)(F)F (mixture of isomers) 5.68

====

TESTED_SYSTEM: GTPase KRas (Homo sapiens, UniProt P01116, G13D)
ASSAY_REMARKS: Inhibition of Biotinylated KRAS G13D mutant (unknown origin) incubated for 20 mins in presence of BODIPY-GDP by HTRF assay
Overview of reported IC50 across a group of molecules:

Solved cases below.
{"MOLECULE": "C=C1CN2CCC[C@@]2(COc2nc(N3CCN(C(=O)/C=C/c4cccc5c4CNCC5)C[C@@H]3C)c3cc(Cl)c(-c4nc(N)cc(C)c4C(F)(F)F)c(F)c3n2)C1", "RESULT": "0.69 µM"}
{"MOLECULE": "C=C1CN2CCC[C@@]2(COc2nc(N3CCN(C(=O)/C=C/c4cc(CN(C)C)c(C)cn4)C[C@@H]3C)c3cc(Cl)c(-c4nc(N)cc(C)c4C(F)(F)F)c(F)c3n2)C1", "RESULT": "0.52 µM"}
{"MOLECULE": "C=C1CN2CCC[C@@]2(COc2nc(N3CCN(C(=O)/C=C/c4cc(CNC)c(C)cn4)C[C@@H]3C)c3cc(Cl)c(-c4nc(N)cc(C)c4C(F)(F)F)c(F)c3n2)C1", "RESULT": "0.5 µM"}
{"MOLECULE": "Cc1cc(N)nc(-c2c(Cl)c3c4c(ncnc4c2F)N2CCN(C(=O)/C=C/c4nccc5c4CNCC5)C[C@H]2CO3)c1C(F)(F)F", "RESULT": "2.7 µM"}
{"MOLECULE": "Cc1cc(N)nc(-c2cc3nc(OC[C@@H]4CCCN4C)nc4c3c(c2Cl)OC[C@@H]2CN(C(=O)C3CC35CNC5)CCN42)c1C(F)(F)F (mixture of isomers)", "RESULT": "2.4 µM"}

Field request: IC50 | item: `C=C1CN2CCC[C@@]2(COc2nc(N3CCN(C(=O)/C=C/c4cc(CNC)ccn4)C[C@@H]3C)c3cc(Cl)c(-c4nc(N)cc(C)c4C(F)(F)F)c(F)c3n2)C1` 0.53 µM
